Molecular target: recombinant MmedCSP3 (Microplitis mediator)
Sequence (A0A219T7S8 entry or part of it): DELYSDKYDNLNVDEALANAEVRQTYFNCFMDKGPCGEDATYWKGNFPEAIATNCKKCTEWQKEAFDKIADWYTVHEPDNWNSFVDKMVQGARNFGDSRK
Assay: biochemical
Format: binding
Consider the following molecules; for each one, report its Ki.
Form entry: value (µM) — number only.

For CCCCCCCCCCCCCCCC(=O)O [Palmitic acid] , what is its reported Ki?
22.2

Given the molecule COC(=O)c1ccccc1O [Methyl salicylate] , what is its reported Ki?
39.2
